- assay target: Metabotropic glutamate receptor 2 (Homo sapiens, UniProt Q14416)
- Sequence (Q14416 19-872 limits assumed): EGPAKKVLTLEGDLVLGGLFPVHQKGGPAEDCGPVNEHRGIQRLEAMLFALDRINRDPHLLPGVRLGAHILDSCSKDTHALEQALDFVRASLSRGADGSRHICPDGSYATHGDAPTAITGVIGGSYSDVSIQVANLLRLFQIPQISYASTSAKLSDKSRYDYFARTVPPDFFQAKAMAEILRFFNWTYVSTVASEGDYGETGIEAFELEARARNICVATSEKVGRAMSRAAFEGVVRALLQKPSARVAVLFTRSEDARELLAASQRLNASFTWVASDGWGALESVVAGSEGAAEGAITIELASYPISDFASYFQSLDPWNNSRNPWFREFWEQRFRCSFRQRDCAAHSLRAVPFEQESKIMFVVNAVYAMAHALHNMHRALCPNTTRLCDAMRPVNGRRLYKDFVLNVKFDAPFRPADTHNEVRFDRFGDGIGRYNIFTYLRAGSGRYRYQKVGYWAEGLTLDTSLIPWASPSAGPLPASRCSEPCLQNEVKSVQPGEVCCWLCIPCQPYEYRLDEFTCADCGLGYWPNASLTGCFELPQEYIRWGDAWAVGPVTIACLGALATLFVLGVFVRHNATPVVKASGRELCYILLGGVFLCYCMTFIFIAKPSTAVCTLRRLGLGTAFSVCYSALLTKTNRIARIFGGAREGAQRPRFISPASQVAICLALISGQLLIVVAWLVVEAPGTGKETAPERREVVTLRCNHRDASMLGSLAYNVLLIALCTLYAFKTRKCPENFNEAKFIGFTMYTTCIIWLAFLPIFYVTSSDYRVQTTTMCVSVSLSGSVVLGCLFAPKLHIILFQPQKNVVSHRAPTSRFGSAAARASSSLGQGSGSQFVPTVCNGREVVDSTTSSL
- experimental protocol: Displacement of [3H]JNJ-46281222 from human metabotropic glutamate receptor 2 expressed in CHOK1 cell membranes assessed as residence time measured every 30 sec for 120 mins by scintillation proximity assay
Values of TIME greater than or equal to 0.2 h map to 1; values below map to 0.

{"smiles notation": "FC(F)(F)c1c(-c2ccc(OC3CCOCC3)c(Cl)c2)ccn2c(CC3CC3)nnc12", "label class": 0}
{"smiles notation": "O[C@H]1CC[C@@H](Nc2ccc(-c3ccn4c(CC5CC5)nnc4c3C(F)(F)F)cc2Cl)CC1", "label class": 1}
{"smiles notation": "CC(C)Nc1ccc(-c2ccn3c(CC4CC4)nnc3c2Cl)cc1F", "label class": 0}
{"smiles notation": "O[C@H]1CC[C@H](Nc2ccc(-c3ccn4c(CC(F)(F)F)nnc4c3Cl)cc2Cl)CC1", "label class": 1}
{"smiles notation": "Cc1ccc(Oc2ccc(-c3ccn4c(CC5CC5)nnc4c3C(C)C)cc2F)c(C)n1", "label class": 1}
{"smiles notation": "Cc1cc(Oc2ccc(-c3ccn4c(CC5CC5)nnc4c3C(F)(F)F)cc2F)ccn1", "label class": 0}
{"smiles notation": "Cc1cc(-c2nc(CN3CCNCC3)no2)cc2c1C(=O)N(Cc1ccc(OC(F)(F)F)cc1)C2", "label class": 0}
{"smiles notation": "FC(F)(F)c1c(-c2ccc(NC3CC3)c(Cl)c2)ccn2c(CC3CC3)nnc12", "label class": 0}

These measurements were taken from ChEMBL document CHEMBL4038323.
